- tested.system: 11β-HSD1 (Homo sapiens, UniProt P28845)
- Sequence (P28845 whole entry): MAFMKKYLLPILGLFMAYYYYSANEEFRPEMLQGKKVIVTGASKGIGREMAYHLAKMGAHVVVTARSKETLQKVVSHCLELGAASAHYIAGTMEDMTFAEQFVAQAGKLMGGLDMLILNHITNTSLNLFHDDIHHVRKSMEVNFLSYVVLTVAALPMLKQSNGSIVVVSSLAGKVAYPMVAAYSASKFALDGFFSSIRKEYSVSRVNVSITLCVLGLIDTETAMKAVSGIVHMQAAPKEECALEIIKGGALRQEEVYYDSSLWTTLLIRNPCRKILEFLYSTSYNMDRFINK
- experiment: biochemical
- condition.label: read-out: Average % inhibition at 111.1 nM, Biological Test Example 1; 111.1 nM compound
parameter.measured: inhibition at 0.1111 µM (%)

Answered examples (3):
COC(=O)c1ccc(-c2cccc(N3CCC(C)(c4ccccc4)OC3=O)c2)cc1 (centres unmarked) [EXAMPLE 46]	46.4
C=CC[C@@]1(c2cccs2)CCN([C@@H](C)c2ccc(-c3ccc(F)cc3F)cc2)C(=O)O1 [EXAMPLE 165]	92.9
C[C@@H](c1cccc(O)c1)N1CCC(C)(c2ccccc2)OC1=O (some centres unmarked) [EXAMPLE 89]	71.4

A. CC1(c2ccccc2)CCN(c2cccc(-c3cccc(N)c3)c2)C(=O)O1 (centres unmarked) [EXAMPLE 32]
B. C=CC[C@@]1(c2ccc(F)cc2)CCN([C@@H](C)c2ccc(-c3ccc(F)cc3F)cc2)C(=O)O1 (single isomer, unassigned) [EXAMPLE 111 Isomer 1]
Between A and B , which one has the lower reported inhibition at 0.1111 µM value? Use the label to indicate which entry you chose.
A

---

pIC50 reference
- tested.system: 11β-HSD1 (Homo sapiens, UniProt P28845)
- experiment: biochemical
- condition.label: IC50 Range, Biological Test Example 1; microsomes from CHO cells overexpressing human 11β-HSD1
pIC50: −log10 of the molar value.

Answered examples (8):
COC(=O)c1cccc(-c2cccc(N3CCC(C)(c4ccccc4)OC3=O)c2)c1 (stereo not drawn) [EXAMPLE 38]	6.00 to 7.00
C[C@@H](c1ccc(C(F)(F)F)cc1)N1CC[C@](CC(C)(C)O)(c2ccc(F)cc2)OC1=O [EXAMPLE 390]	> 7.00
CC1(c2ccccc2)CCN(c2nccc(-c3ccc(F)cc3)n2)C(=O)O1 (stereo not drawn) [EXAMPLE 61]	6.00 to 7.00
C=CCC1(c2ccc(F)cc2)CCN([C@@H](C)c2ccc(Cl)cc2)C(=O)O1 (single isomer, unassigned) [EXAMPLE 196 Isomer 1]	> 7.00
COc1cccc(-c2cccc(N3CCC(C)(c4ccccc4)OC3=O)c2)c1 (stereo not drawn) [EXAMPLE 34]	> 7.00
C[C@@H](c1ccc(-c2ccc(F)cc2F)cc1)N1CCC(CCCO)(c2cccs2)OC1=O (single isomer, unassigned) [EXAMPLE 171 Isomer 1]	> 7.00
O=C(O)CC1(c2ccccc2)CCN(c2cccc(-c3ccc(F)cc3F)c2)C(=O)O1 (stereo not drawn) [EXAMPLE 70]	6.00 to 7.00
CC1(c2ccccc2)CCN(c2cccc(-c3ccccc3C#N)c2)C(=O)O1 (stereo not drawn) [EXAMPLE 12]	> 7.00

For the molecule shown here, C=CC1(c2ccc(F)cc2)CCN([C@@H](C)c2ccccc2)C(=O)O1 (single isomer, unassigned) [EXAMPLE 113 Isomer 1] , give the reported pIC50.
> 7.00

For the molecule shown here, C[C@@H](c1cccc(C#N)c1)N1CC[C@](CCCOC(=O)C(F)(F)F)(c2ccc(F)cc2)OC1=O [EXAMPLE 361] , give the reported pIC50.
> 7.00

---

- tested.system: 11β-HSD1 (Homo sapiens, UniProt P28845)
- experiment: biochemical
- condition.label: read-out: Average % inhibition at 100 nM, Biological Test Example 1; 100 nM
parameter.measured: inhibition at 0.1 µM (%)

Answered examples (5):
Cc1ccc([C@H](C)N2CC[C@](CC(C)(C)O)(c3ccc(F)cc3)OC2=O)cc1	97.1
C=CCC1(c2ccc(F)cc2)CCN(Cc2c(Cl)cccc2Cl)C(=O)O1 (stereo not shown)	94
C[C@@H](c1ccc(F)cc1)N1CC[C@](CCC(N)=O)(c2ccccc2)OC1=O	87.6
CC(O)CC[C@]1(c2ccc(F)cc2)CCN([C@@H](C)c2ccc(Cl)cc2)C(=O)O1 (single isomer, unassigned) [EXAMPLE 383 Isomer 1]	94.7
COc1ccc([C@H](C)N2CC[C@](CCCNS(C)(=O)=O)(c3ccc(F)cc3)OC2=O)cc1	96.5

1. O=C1OC(CCCO)(c2ccc(F)cc2)CCN1Cc1c(F)cccc1F (stereo not shown)
2. CC[C@@H](c1ccc(Br)cc1)N1CC[C@](CCC(N)=O)(c2ccccc2)OC1=O
3. C[C@@H](c1ccc(S(C)(=O)=O)cc1)N1CC[C@](CCO)(c2ccc(F)cc2)OC1=O
Put the items in sequence by inhibition at 0.1 µM, from largest down. // format: requested-order list of labels
2, 1, 3

Measured values drawn from patent US8575156B2 for this set.
